# MIC values compiled below
- Test system: Candida albicans CMCC 98001
- Assay remarks: MIC assay, Candida standard strain (CLSI M27-A3)
- Format: cell-based
- Applied conditions: CMCC98001, 24 h, 35° C.
Numbered stars: 1 amine (or outer) side, 2 acyl side, 3 side chain; on linkers, the order of the positions; unused ones are H or OH. Bridge positions count the residues as written; N and C are the ends. Square brackets hold non-standard residues; d marks the D form. Peptide text beside a SMILES is read from it. * marks the point of attachment. Orn(4R-OH,5R-OCH2CH2NMe3+) = C[N+](C)(C)CCO[C@@H](N[*:3])[C@H](O)C[C@H](N[*:1])C(=O)[*:2]; hTyr(3S-OH,4S-OH) = N[C@H](C(=O)O)[C@H](O)[C@@H](O)c1ccc(O)cc1; X1 = CCCCCOc1cc(F)c(C#Cc2ccc3cc(C(=O)*)ccc3c2)cc1F; X2 = CCCCCOc1ccc(C#Cc2ccc3cc(C(=O)*)ccc3c2)c(F)c1F; Pro(3S-OH,4S-Me) = C[C@H]1CN[C@H](C(=O)O)[C@H]1O; Hyp = O=C(O)[C@@H]1C[C@@H](O)CN1

Compound: CCCCCOc1cc(F)c(C#Cc2ccc3cc(C(=O)N[C@H]4C[C@@H](O)[C@@H](OCC[N+](C)(C)C)NC(=O)[C@@H]5[C@@H](O)[C@@H](C)CN5C(=O)[C@H]([C@@H](C)O)NC(=O)[C@H]([C@H](O)[C@@H](O)c5ccc(O)cc5)NC(=O)[C@@H]5C[C@@H](O)CN5C(=O)[C@H]([C@@H](C)O)NC4=O)ccc3c2)cc1F [Example 16] (X1-[Orn(4R-OH,5R-OCH2CH2NMe3+)]T[Hyp][hTyr(3S-OH,4S-OH)]T[Pro(3S-OH,4S-Me)]; lactam 1-C)
MIC: ≤ 0.015 µg/mL
--
Compound: CC[C@H](C)C[C@H](C)CCCCCCCCC(=O)N[C@H]1C[C@@H](O)[C@@H](NCCN)NC(=O)[C@@H]2[C@@H](O)CCN2C(=O)[C@H]([C@H](O)CCN)NC(=O)[C@H]([C@H](O)[C@@H](O)c2ccc(O)cc2)NC(=O)[C@@H]2C[C@@H](O)CN2C(=O)[C@H]([C@@H](C)O)NC1=O [Caspofungin, reference compound]
MIC: 0.06 µg/mL
--
Compound: CCCCCOc1ccc(C#Cc2ccc3cc(C(=O)N[C@H]4C[C@@H](O)[C@@H](OCC[N+](C)(C)C)NC(=O)[C@@H]5[C@@H](O)[C@@H](C)CN5C(=O)[C@H]([C@@H](C)O)NC(=O)[C@H]([C@H](O)[C@@H](O)c5ccc(O)cc5)NC(=O)[C@@H]5C[C@@H](O)CN5C(=O)[C@H]([C@@H](C)O)NC4=O)ccc3c2)c(F)c1F [Example 8] (X2-[Orn(4R-OH,5R-OCH2CH2NMe3+)]T[Hyp][hTyr(3S-OH,4S-OH)]T[Pro(3S-OH,4S-Me)]; lactam 1-C)
MIC: ≤ 0.015 µg/mL
